- System: SF-539 CNS
- method: NCI tumour cell line growth inhibition, 48 h
readout: TGI (µM)
Reply numerically in µM, unit not repeated.

Assign TGI to the following record: CN(C)CCCN(CCC1CCCCC1)CCC1CCCCC1
3.16

State its TGI for this molecule: CC(=O)/C(=C/c1ccccc1)C(=O)CC(C)C
49.4

Please give measured TGI of the following entry: O=S(=O)(CCN1CCOCC1)Nc1cc(-c2ccc3ncnc(Nc4ccc(F)c(Cl)c4)c3c2)cnc1Cl
2.69

State its TGI for this molecule: NCCc1ccc(S(=O)(=O)F)cc1
70

For CC(=O)O[C@H]([C@H](OC(C)=O)[C@H](C)OC(C)=O)[C@@H](/C=C/[C@@H]1CC=CC(=O)O1)OC(C)=O , write its TGI.
92.7

Answer with the recorded TGI for the molecule listed here: O=C1/C=C/[C@@H](O)[C@@H]2C[C@@H](O)C[C@H]2/C=C/CCC[C@H](CCc2cccc3ccccc23)O1
16.3

Return TGI (reported value) for this molecule: CCCCCCCCCCCC(=O)OC[C@H](C[As](=O)(O)O)OC(=O)CCCCCCCCCCC
38.6

* * *

- Tested on: DU-145 prostate
- method: NCI tumour cell line growth inhibition, 48 h
readout: TGI

Identify measured TGI corresponding to COc1ccc(/C=C/C(=O)/C=C/c2ccc(OC)cc2OC)c(OC)c1
35.3 µM

# return recorded TGI for entry COc1cc(C2C3=C(COC3=O)Oc3cc4c(cc32)OCO4)ccc1O (stereo unspecified)
> 100 µM

Supply TGI value. Item: CN(C)CCN1C(=O)c2cccc3cc([N+](=O)[O-])cc(c23)C1=O
> 100 µM

Tell me measured TGI for CC/C=C\C[C@H](F)C/C=C1/C(=O)C=C[C@@H]1C/C=C\CCCC(=O)OC please.
9.81 µM

Retrieve TGI measured for CC(=O)OC1CCC2(C)C(CCC3C2CC(=O)C2(C)C3CC(N3CC3)C2C(C)=O)C1 (stereo unspecified) and print it.
> 100 µM

State its TGI for this compound: Cc1cccc(Br)[n+]1[O-]
> 100 µM

* * *

- Tested on: BT-549 breast
- method: NCI tumour cell line growth inhibition, 48 h; in the data active = GI50 below about 0.43 µM; inactive = the rest
A correct response names exactly one class from active, inactive

Called result for CC1=CC(C)=NN=C(N)N1S(=O)(=O)c1cc(C)c(Cl)cc1SCc1ccccc1
inactive

Recorded call for COc1ccc(C=Nc2c(C(=O)Nc3cccc(Cl)c3C)sc3nc(C)c(C(=O)/C=C/c4ccc(OC)cc4)cc23)cc1 ?
inactive

Assay result, entry C=C1C(=O)O[C@H]2[C@H]1CC/C(COC(=O)NCc1c[nH]c3ccccc13)=C\CC[C@@]1(C)O[C@@H]21 — outcome?
inactive

Given CN(C)CCCN(CCC1CCCCC1)CCC1CCCCC1 , state the outcome it received in this test.
inactive

What did the test return for C=C(CN1CCN(c2ccc(C(F)(F)F)cc2)CC1)c1ccc(C(=O)Nc2ccccc2N)cc1 ?
inactive

Kindly provide the recorded test outcome for the following molecule: Cc1ccc2oc(=O)cc(/C(=C3/C=CC=N3)c3ccc[nH]3)c2c1
active

Would you mind telling me which call this test gave N#Cc1c(NCc2ccccc2)nc(NCc2ccccc2)c(C#N)c1-c1ccc(O)cc1 ?
inactive

Would you mind telling me which call this test gave CC/C=C\C[C@H](F)C/C=C1/C(=O)C=C[C@@H]1C/C=C\CCCC(=O)OC ?
inactive

Which outcome was entered for the molecule COc1ccc2c3c(Nc4cccc(/C(C)=N\O)c4)[nH]c4ccccc4c-3c(N=O)c2c1 in this test?
inactive

State the result this test recorded for COc1ccc2c(c1)c(-c1nc(-c3c[nH]c4ncccc34)cs1)cn2CCCN1CCCCC1 .
inactive

* * *

- System: UACC-62 melanoma
- method: NCI tumour cell line growth inhibition, 48 h
For each record, write down the corresponding TGI.

Give recorded TGI. N#CCc1c(-c2ccccc2)n(S(=O)(=O)c2ccccc2)c2ccccc12
> 100 µM

Supply recorded TGI for Cc1cc(Cl)nc2nc(Cl)c(N)cc12 here.
5.95 µM

// Input: COc1cc2c(c(OC)c1OC)-c1ccc(O)cc1[C@@H](NC(C)=O)CC2 . Output its TGI only.
> 100 µM

Kindly indicate its recorded TGI. Item: CSCC[C@@H]1C(=O)N(C)[C@H](C(C)(C)C)N1C(=O)c1ccccc1
> 100 µM

Note down TGI recorded for CCCCn1c(CSc2ccc(Cl)cc2)c(C(=O)OCC)c2cc(OC)c(Br)cc21
> 100 µM

Return TGI (reported value) for this molecule: CC1CN=C(NS(=O)(=O)c2cc(C(=O)Nc3ccc(Cl)cc3)c(Cl)cc2S)NN1 (configuration not stated)
84.1 µM

Assign TGI to the following record: CN1CN(C2OC(CO)C(O)C2O)c2nc(N)[nH]c(=O)c21 (configuration not stated)
> 100 µM

Report TGI for OCC1COc2cc(Cl)c(Cl)cc2O1 (configuration not stated)
> 10 µM

Look up and state reported TGI for COC(=O)C1Cc2ccc(O)c(O)c2CN1 (configuration not stated)
39 µM

Supply reported TGI belonging to this molecule: CC12C3C4C1C1C2C3C41CO (configuration not stated)
> 100 µM

Consider the molecule O=C(Nc1ccc(Cl)cc1C(F)(F)F)C(=O)C1CCCS1(=O)=O (configuration not stated) . State its measured TGI.
> 100 µM

Tell me TGI reported for Nc1c(C(=O)Nc2ccccc2)sc2nc3c(cc12)CCCCC3
19.4 µM

* * *

- System: U251 CNS
- method: NCI tumour cell line growth inhibition, 48 h
readout: TGI

Provide one value: measured TGI of CSC1NC(c2ccccc2)=C(C#N)C(=O)N1C1OCC(OC(C)=O)C(OC(C)=O)C1OC(C)=O (stereo unspecified)
> 100 µM

Please give measured TGI of the following entry: NC(=NCc1ccccc1)C(N=Nc1ccccc1)C(=O)NCc1ccccc1 (stereo unspecified)
25.9 µM

Answer with the recorded TGI for the compound listed here: CCCCCCCCCCCCCCCC1=NCCN1
3.52 µM

In one line, give reported TGI of the entry CCOC(=O)C(=O)C=P(c1ccccc1)(c1ccccc1)c1ccccc1 .
> 100 µM

Tell me TGI reported for O=C(O)[C@H](Cc1c[nH]c2ccccc12)N1C(=O)c2ccccc2C1=O
> 100 µM

Look up and state reported TGI for CCOC(=O)c1cc(-n2nnc3ccccc32)cn1C
> 10 µM

* * *

Task for the reader: assign each of the following molecules its reported GI50.
- Tested on: OVCAR-3 ovarian
- method: NCI tumour cell line growth inhibition, 48 h

Provide one value: measured GI50 of CCCCCCCCCCCCCCCC1=NCCN1
2.01 µM

Please list GI50 recorded for the molecule COC(=O)C1=C(O)[C@H](C(=O)OC)C2(O)C(C(=O)OC)[C@H](c3ccc(OC(=O)C(C)c4ccccc4)cc3)C[C@@H]1[C@@H]2C(=O)OC (stereo partly drawn)
9.69 µM

Return reported GI50. Input molecule: Cc1ccc2oc(=O)cc(/C(=C3/C=CC=N3)c3ccc[nH]3)c2c1
0.271 µM

Determine its reported GI50: C=C(CN1CCN(c2ccc(C(F)(F)F)cc2)CC1)c1ccc(C(=O)Nc2ccccc2N)cc1
12 µM

Give a short answer stating reported GI50 for O=C1C(Cl)=C(Nc2ccc(Nc3ccccc3)c(NC3=C(Cl)C(=O)c4ccccc4C3=O)c2)C(=O)c2ccccc21 .
1.69 µM

Kindly indicate its recorded GI50. Item: COc1ccc2c3c(Nc4cccc(/C(C)=N\O)c4)[nH]c4ccccc4c-3c(N=O)c2c1
33.2 µM

Given the molecule CCCCOC(=O)c1ccc(N)cc1 , write its reported GI50.
68 µM

Please give the documented GI50 of O=c1oc2ccc(I)cc2c(=O)n1-c1ccc(F)cc1F
2.67 µM

Return GI50 for the following molecule: CCN1CCC(Nc2ccnc3cc(Cl)ccc23)CC1
24.8 µM

Identify the reported GI50 for the following entry. COc1ccc2c(c1)c(-c1nc(-c3c[nH]c4ncccc34)cs1)cn2CCCN1CCCCC1
1.63 µM

Specify GI50 for Nc1c(C(=O)Nc2ccccc2)sc2nc3c(cc12)CCCCC3 and stop.
0.415 µM

Give recorded GI50. C[C@@]1(C(=O)O)CCC[C@]2(C)C1CC[C@@]13C[C@@](O)(CC[C@]12O)[C@@]1(CO1)C3 (stereo partly drawn)
> 100 µM

Output measured GI50 for this item: COC1C(O)CC(OC2CC(OC3CC(O[C@@H]4C(=O)c5c(cc6cc(OC7CC(OC8CC(O)C(O)C(C)O8)C(O)C(C)O7)c(C)c(O)c6c5O)CC4[C@H](OC)C(=O)O)OC(C)C3O)OC(C)C2O)OC1C (stereo partly drawn)
2.06 µM

Give the reported value of GI50 for this record: COc1cc2c(c(OC)c1OC)-c1ccc(O)cc1[C@@H](NC(C)=O)CC2
0.0232 µM

Complete the entry with GI50 for Cn1c(=O)c(Oc2ccc(F)cc2F)cc2cnc(NC(C)(C)CO)nc21
> 25 µM

Please look at this molecule and report its GI50: CCCCC(CCCCCC(CCCC)NCc1ccc2c(c1)OCO2)NCc1ccc2c(c1)OCO2 (stereo not drawn)
0.936 µM

Please give the documented GI50 of O=C1/C=C/[C@@H](O)[C@@H]2C[C@@H](O)C[C@H]2/C=C/CCC[C@H](CCc2cccc3ccccc23)O1
0.0395 µM

Please report GI50 for the following molecule: CC/C=C\C[C@H](F)C/C=C1/C(=O)C=C[C@@H]1C/C=C\CCCC(=O)OC
2.05 µM
